- Test system: Mk-CFC
- MEASUREMENT_PROTOCOL: HALO hematotoxicity assay, mouse Mk-CFC
- Type: cell-based
- TEST_CONTEXT: 120 h, 5 days culture, iATP
MEASUREMENT_NAME: pIC50
Note: pIC50 values are expressed as the negative base-10 logarithm of concentration in M.

In: What does the data say about its pIC50? Entry: `CN(C)CCN1C(=O)c2cccc3cc(NC(N)=O)cc(c23)C1=O`
Out: 5.23

###

- MEASUREMENT_PROTOCOL: UNBS5162 mouse pharmacokinetics
- Type: in vivo
- TEST_CONTEXT: B6D2F1, mouse, plasma, po; female mice; p.o. 80 mg/kg single
MEASUREMENT_NAME: Cmax
Quote the value and follow it with the unit of measurement.

In: # lookup: Cmax of CN(C)CCN1C(=O)c2cccc3cc(NC(N)=O)cc(c23)C1=O [UNBS5162]
Out: 510 ng/mL
